Target: T1, human AMHRII (anti-Mullerian hormone receptor type 2) (human, UniProt Q16671 18-573)
T1 construct: whole, on cells; also called AMHR2; human AMHR2
T1 sequence (looked up): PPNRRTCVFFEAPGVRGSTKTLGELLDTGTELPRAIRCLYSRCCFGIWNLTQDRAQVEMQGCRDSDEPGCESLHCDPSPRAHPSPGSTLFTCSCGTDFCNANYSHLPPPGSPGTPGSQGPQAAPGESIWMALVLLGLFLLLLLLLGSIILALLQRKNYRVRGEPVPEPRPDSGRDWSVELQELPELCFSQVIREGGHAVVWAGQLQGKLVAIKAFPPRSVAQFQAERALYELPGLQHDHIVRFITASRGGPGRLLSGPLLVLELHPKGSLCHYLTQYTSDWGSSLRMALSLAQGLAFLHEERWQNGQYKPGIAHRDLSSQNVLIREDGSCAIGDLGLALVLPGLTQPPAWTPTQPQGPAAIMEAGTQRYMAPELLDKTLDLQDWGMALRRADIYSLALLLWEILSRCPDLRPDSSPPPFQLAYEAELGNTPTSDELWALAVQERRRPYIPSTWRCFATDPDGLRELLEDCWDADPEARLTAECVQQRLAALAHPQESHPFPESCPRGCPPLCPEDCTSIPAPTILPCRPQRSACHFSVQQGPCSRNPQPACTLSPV
Test: FACS on CHO-K1 cells over-expressing human AMHR2
observed.property: Top (MFI)
Reply numerically in MFI, unit not repeated.

xi35D4G3 hIgG1 (antibody, V domains shown, Murine variable domains in human chimeric format, human IgG1; also called 35D4G3 (chimeric)) VH: QVRLLQSGAALVKPGASAKMSCKASGYTFTDYWVSWVKQSHGKSLEWIGEIYPDNGITNFNEKFKGKATLTVDKSTRTAYMELSRLTSEDSAIYYCTRQRDYWGQGVMVTVSS VL: DVVLTQTPGSLSVTLGDQVSISCRSSQSLKYGDGYTYLEWYLQKPGQSPQLLFYGVSNRFSGVPDRFIGSGSGTDFTLKISRVEPEDLGVYYCFQATHDPNTFGTGTKLDLK = 114000

Field: next binder
Looking up xi108F3D1E9 hIgG1 (antibody, V domains shown, Murine variable domains in human chimeric format, human IgG1; also called xi108F3D1E9 hlgG1; 108F3D1E9 (chimeric)) VH: DVQLQESGPGLVKPSQSLSLTCTVTGYSITSDFAWNWIRQFPGNKLEWMGYINFSGSTSYNPSLKSRISITRDTSKNQFFLQLNSVTTEDTATYYCAGSRYSWFAYWGQGTLVTVSA VL: DIVLTQSPASLAVSLGQRATISCRASESVDTYGNSFMHWYQQKPGQPPKLLIYRASNLESGIPARFSGSGSRTDFTLTINPVEADDVATYYCQQSNEDPYTFGGGTKLEIK , I found its Top (MFI) recorded as 124000
